- Type: in vivo, human
- Test conditions: human, plasma, iv, 200 mg/m2
Measured property: clearance (mL/min)

• CN1CCN(c2ccc(Nc3ncc4cc5n(c4n3)C3(CCCCC3)CNC5=O)nc2)CC1 = 2120

---

- Assay type: in vivo, human
- Test conditions: human, plasma, iv, 240 mg/m2
Measured property: Tmax (min)

- CN1CCN(c2ccc(Nc3ncc4cc5n(c4n3)C3(CCCCC3)CNC5=O)nc2)CC1 [Trilaciclib, trilaciclib]: 25.2
